Sourced from PubChem BioAssay (NCI)

Would you mind telling me the reported growth of each entry?
test system: SR leukemia; assay: NCI-60 one-dose screen, 48 h (100 = growth as untreated, 0 = no growth, -100 = all killed); settings: 10 µM unless noted
The panel holds about 83,000 compounds, 20% with a hit somewhere; the sample as a whole holds those more often. The source made the active and inactive calls. Rule for the calls: active = growth percent below 10; inactive = the rest.

growth lookup needed for O=P(O)(O)OCC1OC(n2cnc3c(NCc4ccccc4)ncnc32)C(O)C1O (configuration not stated) , thanks.
41.7% (inactive)

Which growth is listed for CCCCCCCCCCCCCCCCCCOc1ccccc1CC(=O)OCC[N+]1(C)CCOCC1 ?
50.7% (inactive)

For COc1ccc(Cl)cc1Nc1nc(C(F)(F)F)ccc1C(=O)N/N=C/c1ccccc1Cl , what is its reported growth?
-15.1% (active)

# input compound: CC1(C)C2CC=C(/C=N/NC(=O)C3CCC(=O)N3)C1C2 (configuration not stated) ; wanted: its growth
116% (inactive)

Reported growth, compound C#Cc1cccc(Oc2ccc(NC(=O)CCl)cc2)c1 : ____
13% [8.25 µM] (inactive)

Give its growth value. Item: O=C1c2cc3c(cc2-c2c1c1ccc(Cl)cc1c(=O)n2C[C@H](O)CO)OCO3
-2.7% (active)

Entry under review: C#CCOc1ccc2ncnc(Nc3cccc(NC(=O)CCl)c3)c2c1 . Reported growth?
30.3% (inactive)
